# solubility annotations
- EXPERIMENTAL_PROTOCOL: Aqueous solubility of the compound at pH 6.5
- Assay type: physicochemical
- RECORDED_CONDITIONS: buffer
Dear colleague, please return just the value in µM, with no unit written.

Use these answered entries as a reference point.
{"COMPOUND": "C[S+]([O-])c1ccc(-c2cnc3ccc(-c4cccc([S+](C)[O-])c4)nn23)cc1 (centres undefined)", "ASSAY_RESULT": 192}
{"COMPOUND": "C[S+]([O-])c1cccc(-c2ccc3ncc(-c4ccc(S(C)(=O)=O)cc4)n3n2)c1 (centres undefined)", "ASSAY_RESULT": 157}

# evaluate next
Problem: Quick check: solubility of CS(=O)(=O)c1cccc(-c2ccc3ncc(-c4ccc(C(=O)N5CCC(O)C5)cc4)n3n2)c1 (centres undefined) ?
Result: 177
